Cited source for all entries: paper PMC8162404

# measurement_target: Gal-1 (Homo sapiens, UniProt P09382)
# Construct: made in house; host or cells: E. coli BL21(DE3)
# Sequence (P09382 whole entry): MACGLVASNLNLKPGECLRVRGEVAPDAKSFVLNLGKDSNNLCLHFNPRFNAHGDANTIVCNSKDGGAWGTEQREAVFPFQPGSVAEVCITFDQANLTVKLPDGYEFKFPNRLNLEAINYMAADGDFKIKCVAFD
# assay_remarks: Pull-down assay with immobilized protein and LSM libraries
# Type: binding
# test_conditions: H12 library; 1:1 binding assumed; read-out: Surface mapping KD (apparent)
pKd listing for selected molecules.
Units for pKd: none; it is -log10 of a concentration expressed in mol/L.

NCCCC[C@@H](CC(=O)N[C@H]1CCC[C@@H]1C(=O)N[C@H]1CCC[C@@H]1C(=O)N[C@@H](CC(=O)O)CC(=O)N[C@H]1CCC[C@@H]1C(=O)N[C@H]1CCC[C@@H]1C(N)=O)NC(=O)[C@H]1CCC[C@@H]1NC(=O)[C@H]1CCC[C@@H]1N | 3.54

For this molecule ( NC(=O)[C@H]1CCC[C@@H]1NC(=O)[C@H]1CCC[C@@H]1NC(=O)C[C@H](Cc1ccccc1)NC(=O)[C@H]1CCC[C@@H]1NC(=O)[C@H]1CCC[C@@H]1NC(=O)C[C@H](Cc1ccccc1)NC(=O)[C@H]1CCC[C@@H]1NC(=O)[C@H]1CCC[C@@H]1N ), measured pKd is 3.89

For this molecule ( NC(=O)CC[C@@H](CC(=O)N[C@H]1CCC[C@@H]1C(=O)N[C@H]1CCC[C@@H]1C(=O)N[C@H](CC(=O)N[C@H]1CCC[C@@H]1C(=O)N[C@H]1CCC[C@@H]1C(N)=O)Cc1c[nH]c2ccccc12)NC(=O)[C@H]1CCC[C@@H]1NC(=O)[C@H]1CCC[C@@H]1N ), measured pKd is 3.39

For this molecule ( NC(=O)[C@H]1CCC[C@@H]1NC(=O)[C@H]1CCC[C@@H]1NC(=O)C[C@H](CO)NC(=O)[C@H]1CCC[C@@H]1NC(=O)[C@H]1CCC[C@@H]1NC(=O)C[C@H](Cc1ccc(O)cc1)NC(=O)[C@H]1CCC[C@@H]1NC(=O)[C@H]1CCC[C@@H]1N ), measured pKd is 3.71

For this molecule ( CC(C)C[C@@H](CC(=O)N[C@H]1CCC[C@@H]1C(=O)N[C@H]1CCC[C@@H]1C(=O)N[C@H](CC(=O)N[C@H]1CCC[C@@H]1C(=O)N[C@H]1CCC[C@@H]1C(N)=O)Cc1ccccc1)NC(=O)[C@H]1CCC[C@@H]1NC(=O)[C@H]1CCC[C@@H]1N ), measured pKd is 3.42

For this molecule ( C[C@@H](CC(=O)N[C@H]1CCC[C@@H]1C(=O)N[C@H]1CCC[C@@H]1C(N)=O)NC(=O)[C@H]1CCC[C@@H]1NC(=O)[C@H]1CCC[C@@H]1NC(=O)C[C@H](CCC(=O)O)NC(=O)[C@H]1CCC[C@@H]1NC(=O)[C@H]1CCC[C@@H]1N ), measured pKd is 3.47

For this molecule ( CC[C@H](C)[C@@H](CC(=O)N[C@H]1CCC[C@@H]1C(=O)N[C@H]1CCC[C@@H]1C(N)=O)NC(=O)[C@H]1CCC[C@@H]1NC(=O)[C@H]1CCC[C@@H]1NC(=O)C[C@@H](NC(=O)[C@H]1CCC[C@@H]1NC(=O)[C@H]1CCC[C@@H]1N)C(C)C ), measured pKd is 3.33
